system: Klebsiella pneumonia ATCC 13883
Each record is given Met if its reported MIC is strictly below 20 µg/mL. Records at or above 20 µg/mL are given Not met.

Prompt line: Problem: For the molecule C[C@]12CC[C@@H](OCCCN)C[C@H]1C[C@@H](OCCCN)[C@@H]1[C@@H]2C[C@H](OCCCN)[C@]2(C)[C@@H](O)CC[C@@H]12 [Compound 106] , is MIC under 20 µg/mL?
Response line: Not met

Prompt line: Record C[C@H](CCCN(C)Cc1ccccc1)[C@H]1CC[C@H]2[C@@H]3[C@H](OCCCN)C[C@@H]4C[C@H](OCCCN)CC[C@]4(C)[C@H]3C[C@H](OCCCN)[C@]12C [Compound 2] : is its MIC strictly below 20 µg/mL?
Response line: Met

Prompt line: Here's an entry: CCCOCCC[C@@H](C)[C@H]1CC[C@H]2[C@@H]3[C@H](OCCCN)C[C@@H]4C[C@H](OCCCN)CC[C@]4(C)[C@H]3C[C@H](OCCCN)[C@]12C [Compound 112] . Is its MIC below 20 µg/mL?
Response line: Not met

Prompt line: Identify whether the molecule C[C@H](CCCN(C)Cc1ccccc1)[C@H]1CC[C@H]2[C@@H]3[C@H](OCCCNC(=N)N)C[C@@H]4C[C@H](OCCCNC(=N)N)CC[C@]4(C)[C@H]3C[C@H](OCCCNC(=N)N)[C@]12C [Compound 5] records MIC below 20 µg/mL.
Response line: Met

Prompt line: Dear colleague, could you confirm whether MIC of C[C@H](CCCN(C)Cc1ccccc1)[C@H]1CC[C@H]2[C@@H]3[C@H](OCCN)C[C@@H]4C[C@H](OCCN)CC[C@]4(C)[C@H]3C[C@H](OCCN)[C@]12C [Compound 1] falls below 20 µg/mL? Thanks.
Response line: Not met

Prompt line: Report whether reported MIC is lower than 20 µg/mL (strictly) for C[C@H](CCCO)[C@H]1CC[C@H]2[C@@H]3[C@H](OCCCN)C[C@@H]4C[C@H](OCCCN)CC[C@]4(C)[C@H]3C[C@H](OCCCN)[C@]12C [Compound 10]
Response line: Not met

====

tested on: E. coli (ATCC 10798); assay: Sensitization to erythromycin or novobiocin (outer membrane permeabilization, FIC); type: cell-based, Escherichia coli; details: Table 9; Escherichia coli (ATCC 10798)
Rule: (a) Concentration required to lower the MIC of erythromycin from 70 to 1 µg/mL of 3 µg/mL or more gives True; anything lower gives False.

Prompt line: # check: (a) Concentration required to lower the MIC of erythromycin from 70 to 1 µg/mL of CCCOCCC[C@@H](C)[C@H]1CC[C@H]2[C@@H]3[C@H](OCCCN)C[C@@H]4C[C@H](OCCCN)CC[C@]4(C)[C@H]3C[C@H](OCCCN)[C@]12C is greater than or equal to 3 µg/mL
Response line: False

Prompt line: # check: (a) Concentration required to lower the MIC of erythromycin from 70 to 1 µg/mL of C[C@H](CCCO)[C@H]1CC[C@H]2[C@@H]3[C@H](OCCCN)C[C@@H]4C[C@H](OCCCN)CC[C@]4(C)[C@H]3C[C@H](OCCCN)[C@]12C is greater than or equal to 3 µg/mL
Response line: False

Prompt line: Form field: (a) Concentration required to lower the MIC of erythromycin from 70 to 1 µg/mL at least 3 µg/mL? Entry: CCCCCOCCC[C@@H](C)[C@H]1CC[C@H]2[C@@H]3[C@H](OCCCN)C[C@@H]4C[C@H](OCCCN)CC[C@]4(C)[C@H]3C[C@H](OCCCN)[C@]12C
Response line: False

Prompt line: Exam item: decide whether the reported (a) Concentration required to lower the MIC of erythromycin from 70 to 1 µg/mL for C[C@H](CO)[C@H]1CC[C@H]2[C@@H]3[C@H](OCCCN)C[C@@H]4C[C@H](OCCCN)CC[C@]4(C)[C@H]3C[C@H](OCCCN)[C@]12C is at least 3 µg/mL.
Response line: True

====

I'd be grateful if you could share measured concentration required to lower the MIC of erythromycin from 70 µg/mL to 1 µg/mL for these entries.
tested on: E. coli (ATCC 10798); assay: Sensitization to erythromycin or novobiocin (outer membrane permeabilization, FIC); assay type: cell-based, Escherichia coli; conditions: Table 2; E. coli (ATCC 10798); with erythromycin
# number only, unit µg/mL dropped from output

Reported concentration required to lower the MIC of erythromycin from 70 µg/mL to 1 µg/mL ( C[C@H](CCCOCCC[C@@H](C)[C@H]1CC[C@H]2[C@@H]3[C@H](OCCCN)C[C@@H]4C[C@H](OCCCN)CC[C@]4(C)[C@H]3C[C@H](OCCCN)[C@]12C)[C@H]1CC[C@H]2[C@@H]3[C@H](OCCCN)C[C@@H]4C[C@H](OCCCN)CC[C@]4(C)[C@H]3C[C@H](OCCCN)[C@]12C [Compound 12] ) = 1.5

Recorded concentration required to lower the MIC of erythromycin from 70 µg/mL to 1 µg/mL (molecule C[C@H](CCCN(C)Cc1ccccc1)[C@H]1CC[C@H]2[C@@H]3[C@H](OCCNC(=N)N)C[C@@H]4C[C@H](OCCNC(=N)N)CC[C@]4(C)[C@H]3C[C@H](OCCNC(=N)N)[C@]12C [Compound 4] ): 1.5

Notebook: C[C@H](CCCN(C)Cc1ccccc1)[C@H]1CC[C@H]2[C@@H]3[C@H](OCCCCN)C[C@@H]4C[C@H](OCCCCN)CC[C@]4(C)[C@H]3C[C@H](OCCCCN)[C@]12C [Compound 3] , concentration required to lower the MIC of erythromycin from 70 µg/mL to 1 µg/mL read as 1.5

Recorded result, C[C@H](CCCN(C)Cc1ccccc1)[C@H]1CC[C@H]2[C@@H]3[C@H](OCCCN)C[C@@H]4C[C@H](OCCCN)CC[C@]4(C)[C@H]3C[C@H](OCCCN)[C@]12C [Compound 2] , concentration required to lower the MIC of erythromycin from 70 µg/mL to 1 µg/mL: 1

====

assay: Minimum hemolytic concentration (MHC); type: cell-based; details: Table 16
Reported Endpoint: MHC

Looking up C[C@H](CCC(=O)OCC[N+](C)(C)C)[C@H]1CC[C@H]2[C@@H]3[C@H](OC(=O)CCN)C[C@@H]4C[C@H](OC(=O)CCN)CC[C@]4(C)[C@H]3C[C@H](OC(=O)CCN)[C@]12C , I found its MHC recorded as >200 µg/mL

The recorded MHC for entry CCCCCCCCOC(=O)CC[C@@H](C)[C@H]1CC[C@H]2[C@@H]3[C@H](OC(=O)CN)C[C@@H]4C[C@H](OC(=O)CN)CC[C@]4(C)[C@H]3C[C@H](OC(=O)CN)[C@]12C equals 4.0 µg/mL

For reference, reported MHC for C[C@H](CCC(=O)OCC[N+](C)(C)C)[C@H]1CC[C@H]2[C@@H]3[C@H](OC(=O)CCCN)C[C@@H]4C[C@H](OC(=O)CCCN)CC[C@]4(C)[C@H]3C[C@H](OC(=O)CCCN)[C@]12C stands at >200 µg/mL

MHC reported for this molecule CCCCCCCCOC(=O)CC[C@@H](C)[C@H]1CC[C@H]2[C@@H]3[C@H](OC(=O)CCCN)C[C@@H]4C[C@H](OC(=O)CCCN)CC[C@]4(C)[C@H]3C[C@H](OC(=O)CCCN)[C@]12C : <10 µg/mL

Form field MHC, entry C[C@H](CCC(=O)OCC[N+](C)(C)C)[C@H]1CC[C@H]2[C@@H]3[C@H](OC(=O)CN)C[C@@H]4C[C@H](OC(=O)CN)CC[C@]4(C)[C@H]3C[C@H](OC(=O)CN)[C@]12C : >200 µg/mL

Per the record, C[C@H](CCC(=O)O)[C@H]1CC[C@H]2[C@@H]3[C@H](OC(=O)CN)C[C@@H]4C[C@H](OC(=O)CN)CC[C@]4(C)[C@H]3C[C@H](OC(=O)CN)[C@]12C has MHC of >100 µg/mL

====

Test system: E. coli (ATCC 10798)
Assay: MIC and MBC measurement
Type: cell-based, Escherichia coli
Settings: ATCC10798; Table 9; Escherichia coli (ATCC 10798); read-out: MBC
Description: General: Microorganisms. Reference strains were purchased from the American Type Culture Collection (Rockville, MD) or Bactrol disks from Difeo Laboratories (Detroit, MI). […] Aliquots of 1 mL of the suspension were added to test tubes containing 1 mL TSB and incrementally varied concentrations of cholic acid derivatives and/or erythromycin or novobiocin. […] Colonies that grew on the subculture after overnight incubation were counted and the number of CFU/mL in the samples were calculated. […]
Give measured MBC for each item. Keep answers brief.
Use µg/mL as the unit, but write only the number.

// CCCCCOCCC[C@@H](C)[C@H]1CC[C@H]2[C@@H]3[C@H](OCCCN)C[C@@H]4C[C@H](OCCCN)CC[C@]4(C)[C@H]3C[C@H](OCCCN)[C@]12C : MBC value = 5

The measured MBC associated with COCCC[C@@H](C)[C@H]1CC[C@H]2[C@@H]3[C@H](OCCCN)C[C@@H]4C[C@H](OCCCN)CC[C@]4(C)[C@H]3C[C@H](OCCCN)[C@]12C reads 33
